Tested on: HCC1937 (Breast Carcinoma)
Assay: combination Emax (second highest fraction inhibited in the dose matrix, 72 h); higher = more inhibition; extreme values may be limits of the assay
Categorize each record by its combination Emax using low value = under 0.3, medium value = from 0.3 up to 0.5, high value = 0.5 and over

Would you please look over these solved cases?
MOLECULE	LABEL
COc1nnc2ccc(N3CCC(c4ccc(OCCN5CCN(C)C(=O)[C@H]5C)cc4)CC3)nn12 [AZD5153] + Cn1cnc2c(F)c(Nc3ccc(Br)cc3Cl)c(C(=O)NOCCO)cc21 [Selumetinib] (first compound max 1 µM, 7x7, partner max 10 µM)	medium value
NC1(C(=O)N[C@@H](CCO)c2ccc(Cl)cc2)CCN(c2ncnc3[nH]ccc23)CC1 [Capivasertib] + CCN(CCO)CCCOc1ccc2c(Nc3cc(CC(=O)Nc4cccc(F)c4)[nH]n3)ncnc2c1 [AZD2811] (first compound max 10 µM, 7x7, partner max 1 µM)	medium value

Kindly consider the entry below.
*Q* Classify this molecule: Cc1cc2ncnn2cc1Nc1ncc2c(n1)n(C1CCOCC1)c(=O)n2C [AZD7648] + CCN(CCO)CCCOc1ccc2c(Nc3cc(CC(=O)Nc4cccc(F)c4)[nH]n3)ncnc2c1 [AZD2811] (first compound max 10 µM, 7x7, partner max 1 µM)
*A* low value
